System: Thyroid hormone receptor alpha, THRA (h)
Test: IPP THRA coactivator recruitment (agonist)
Assay type: biochemical, human
Details: 100 uM; agonist; T3; * denotes assay interference (2-Amino-6-chloro-4-nitrophenol, HC Red 3)

Molecule: CCOc1cc(CCC(C)=O)ccc1O [Ethylzingerone, 4-(3-Ethoxy-4-hydroxyphenyl)butan-2-one]
IPP screening %, Coactivator recruitment, %: 4.0

Molecule: Cc1c(O)cccc1O [2-methyl-1,3-benzenediol, 2-Methylbenzene-1,3-diol]
IPP screening %, Coactivator recruitment, %: 2.0

Molecule: C[C@@H]1C[C@H]2[C@@H]3CCC4=CC(=O)C=C[C@]4(C)[C@@]3(F)[C@@H](O)C[C@]2(C)[C@@]1(O)C(=O)CO [Dexamethasone]
IPP screening %, Coactivator recruitment, %: 3.0

###

Test system: Glutamate receptor ionotropic NMDA 1 non-selective, GRIN1 (r)
Conditions: IPP screening at 10 uM; control CGS 19755
Where a name gives a salt, the structure may show the parent alone.
In this section, each of the molecules is paired with its reported Specific binding.
Value Kind: Specific binding (%)

Molecule: O=CCCCC=O
Measured Number: -4.1
--
Molecule: CC(=O)N1CCN(c2ccc(OC[C@H]3CO[C@](Cn4ccnc4)(c4ccc(Cl)cc4Cl)O3)cc2)CC1
Measured Number: 2.7
--
Molecule: CC(C)(C)c1ccc(CCOc2ncnc3ccccc23)cc1
Measured Number: 0.6
--
Molecule: CCCCOC(=O)c1ccc(O)cc1 [Butylparaben, Butyl 4-hydroxybenzoate]
Measured Number: -5.2
--
Molecule: CC1(C)C(C=C(Cl)Cl)C1C(=O)OC(C#N)c1cccc(Oc2ccccc2)c1 (stereo not shown)
Measured Number: 11.4
--
Molecule: CCOP(=S)(OCC)Oc1nc(Cl)c(Cl)cc1Cl
Measured Number: 0.2
--
Molecule: O=[N+]([O-])c1cc(C(F)(F)F)c(Cl)c([N+](=O)[O-])c1Nc1ncc(C(F)(F)F)cc1Cl
Measured Number: 1.2
--
Molecule: N#CC(CCc1ccc(Cl)cc1)(Cn1cncn1)c1ccccc1 (stereo not shown)
Measured Number: 38.6
--
Molecule: COc1ccc(CCN(C)CCCC(C#N)(c2ccc(OC)c(OC)c2)C(C)C)cc1OC (stereo not shown) [Verapamil Hydrochloride]
Measured Number: 2.5
--
Molecule: C[C@H]1O[C@@H](O[C@H]2[C@@H](O)C[C@H](O[C@H]3[C@@H](O)C[C@H](O[C@H]4CC[C@@]5(C)[C@H](CC[C@@H]6[C@@H]5C[C@@H](O)[C@]5(C)[C@@H](C7=CC(=O)OC7)CC[C@]65O)C4)O[C@@H]3C)O[C@@H]2C)C[C@H](O)[C@@H]1O
Measured Number: -2.6

###

Biological target: Dopamine receptor D2, DRD2 (h) (Homo sapiens, UniProt P14416)
Sequence (P14416 whole entry): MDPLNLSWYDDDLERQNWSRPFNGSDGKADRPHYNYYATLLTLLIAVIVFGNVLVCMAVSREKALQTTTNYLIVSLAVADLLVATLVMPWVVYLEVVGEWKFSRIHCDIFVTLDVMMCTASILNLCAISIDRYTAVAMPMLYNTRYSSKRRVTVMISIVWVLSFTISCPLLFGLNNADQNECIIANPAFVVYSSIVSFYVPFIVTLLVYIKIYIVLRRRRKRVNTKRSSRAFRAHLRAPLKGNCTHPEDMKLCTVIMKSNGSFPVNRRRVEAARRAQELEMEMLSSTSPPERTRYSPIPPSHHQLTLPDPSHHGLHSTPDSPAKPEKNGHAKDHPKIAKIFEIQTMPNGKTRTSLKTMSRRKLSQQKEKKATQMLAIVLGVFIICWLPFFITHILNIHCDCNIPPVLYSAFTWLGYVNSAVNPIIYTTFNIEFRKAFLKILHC
Assay: biochemical
Value Kind: IC50 (µM)

Compound: CCN(CC)CCNC(=O)c1cc(Cl)c(N)cc1OC [Metoclopramide]
Measured Number: 0.046

###

// reported IPP screening %, Specific binding for each item listed
Target: Potassium voltage-gated channel subfamily H member 2 hERG, KCNH2 (h) (Homo sapiens)
Sequence (Q12809 whole entry): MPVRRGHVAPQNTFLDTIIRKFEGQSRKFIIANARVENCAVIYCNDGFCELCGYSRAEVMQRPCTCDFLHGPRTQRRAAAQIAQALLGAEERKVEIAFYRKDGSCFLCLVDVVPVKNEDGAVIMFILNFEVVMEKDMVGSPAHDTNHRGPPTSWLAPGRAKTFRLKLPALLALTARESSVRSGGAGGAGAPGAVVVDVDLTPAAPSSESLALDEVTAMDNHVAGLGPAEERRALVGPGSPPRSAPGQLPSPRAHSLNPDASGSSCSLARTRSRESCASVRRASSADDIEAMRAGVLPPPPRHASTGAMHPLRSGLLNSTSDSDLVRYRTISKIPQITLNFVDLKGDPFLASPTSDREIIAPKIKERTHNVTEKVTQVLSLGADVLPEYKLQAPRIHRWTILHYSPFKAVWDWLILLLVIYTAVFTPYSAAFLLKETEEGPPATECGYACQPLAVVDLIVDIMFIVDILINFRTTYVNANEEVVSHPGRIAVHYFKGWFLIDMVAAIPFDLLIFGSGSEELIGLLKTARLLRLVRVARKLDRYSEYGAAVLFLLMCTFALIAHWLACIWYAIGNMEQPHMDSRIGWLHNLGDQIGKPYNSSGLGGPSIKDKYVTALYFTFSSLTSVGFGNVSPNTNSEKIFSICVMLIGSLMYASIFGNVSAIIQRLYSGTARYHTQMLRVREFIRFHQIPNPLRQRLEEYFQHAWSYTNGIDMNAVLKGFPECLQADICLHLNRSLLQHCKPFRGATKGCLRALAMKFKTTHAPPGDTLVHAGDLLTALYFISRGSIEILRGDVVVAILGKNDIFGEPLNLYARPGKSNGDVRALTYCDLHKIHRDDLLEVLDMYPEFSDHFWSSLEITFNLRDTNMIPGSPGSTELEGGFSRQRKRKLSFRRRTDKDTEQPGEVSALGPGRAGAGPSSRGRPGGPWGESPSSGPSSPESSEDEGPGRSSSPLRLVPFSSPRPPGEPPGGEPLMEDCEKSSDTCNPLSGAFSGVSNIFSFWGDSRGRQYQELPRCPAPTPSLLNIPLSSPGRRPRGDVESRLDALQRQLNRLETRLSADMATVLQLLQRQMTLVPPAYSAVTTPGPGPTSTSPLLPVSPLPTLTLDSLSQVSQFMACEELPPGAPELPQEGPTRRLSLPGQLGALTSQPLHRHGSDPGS
Conditions: 10 uM; [3H] Dofetilide; control Terfenadine

Compound: O=[N+]([O-])c1cc(C(F)(F)F)c(Cl)c([N+](=O)[O-])c1Nc1ncc(C(F)(F)F)cc1Cl
Measurement Units: %
IPP screening %, Specific binding: 16.2

Compound: O=CCCCC=O
Measurement Units: %
IPP screening %, Specific binding: -1.1

Compound: CCCCOC(=O)c1ccc(O)cc1 [Butylparaben, Butyl 4-hydroxybenzoate]
Measurement Units: %
IPP screening %, Specific binding: -13.5

Compound: CC1(C)C(C=C(Cl)Cl)C1C(=O)OC(C#N)c1cccc(Oc2ccccc2)c1 (stereo not drawn)
Measurement Units: %
IPP screening %, Specific binding: 22.7

Compound: N#CC(CCc1ccc(Cl)cc1)(Cn1cncn1)c1ccccc1 (stereo not drawn)
Measurement Units: %
IPP screening %, Specific binding: 79.9

Compound: CC(C)(C)c1ccc(CCOc2ncnc3ccccc23)cc1
Measurement Units: %
IPP screening %, Specific binding: 34.9

###

Documented Specific binding across a set of compounds
Test system: Gamma-aminobutyric acid receptor subunit alpha-1 BZD site, GABRA1A (r)
Assay type: binding, rat
Conditions: IPP screening at 10 uM; control diazepam
Structures can show the parent of a compound that is named as a salt.

Compound: CCCCOC(=O)c1ccc(O)cc1 [Butylparaben, Butyl 4-hydroxybenzoate]
Measurement Units: %
Specific binding: 12.4
//
Compound: O=CCCCC=O [Glutaraldehyde, Pentanedial]
Measurement Units: %
Specific binding: -5.0
//
Compound: COc1ccc(CCN(C)CCCC(C#N)(c2ccc(OC)c(OC)c2)C(C)C)cc1OC (stereo not shown) [Verapamil Hydrochloride]
Measurement Units: %
Specific binding: -6.7
//
Compound: CC(C)(C)c1ccc(CCOc2ncnc3ccccc23)cc1 [Fenazaquin]
Measurement Units: %
Specific binding: 7.6
//
Compound: N#CC(CCc1ccc(Cl)cc1)(Cn1cncn1)c1ccccc1 (stereo not shown) [Fenbuconazole]
Measurement Units: %
Specific binding: 3.5
//
Compound: O=[N+]([O-])c1cc(C(F)(F)F)c(Cl)c([N+](=O)[O-])c1Nc1ncc(C(F)(F)F)cc1Cl [Fluazinam]
Measurement Units: %
Specific binding: -31.4
//
Compound: C[C@H]1O[C@@H](O[C@H]2[C@@H](O)C[C@H](O[C@H]3[C@@H](O)C[C@H](O[C@H]4CC[C@@]5(C)[C@H](CC[C@@H]6[C@@H]5C[C@@H](O)[C@]5(C)[C@@H](C7=CC(=O)OC7)CC[C@]65O)C4)O[C@@H]3C)O[C@@H]2C)C[C@H](O)[C@@H]1O [Digoxin]
Measurement Units: %
Specific binding: 11.3
//
Compound: CC(=O)N1CCN(c2ccc(OC[C@H]3CO[C@](Cn4ccnc4)(c4ccc(Cl)cc4Cl)O3)cc2)CC1 [Ketoconazole]
Measurement Units: %
Specific binding: 15.5
//
Compound: CC1(C)C(C=C(Cl)Cl)C1C(=O)OC(C#N)c1cccc(Oc2ccccc2)c1 (stereo not shown) [Cypermethrin]
Measurement Units: %
Specific binding: 5.5
//
Compound: CCOP(=S)(OCC)Oc1nc(Cl)c(Cl)cc1Cl [Chlorpyrifos]
Measurement Units: %
Specific binding: -11.0

###

Catalogue of pod_cell_stress PoD values
Tested on: HepG2 cells
Assay: Cell stress panel (CSP), 24 h, 8 concentrations, BIFROST global PoD
Assay type: cell-based
Conditions: HepG2; cell stress panel PoD

Compound: Nc1ccc(NCCO)c([N+](=O)[O-])c1
pod_cell_stress PoD / µM: 1.583
--
Compound: CCN(CC)CCNC(=O)c1cc(Cl)c(N)cc1OC [Metclopramide]
pod_cell_stress PoD / µM: 73.2603
--
Compound: O=CCCCC=O
pod_cell_stress PoD / µM: 37.601
--
Compound: O=C1CN(N=Cc2ccc([N+](=O)[O-])o2)C(=O)N1
pod_cell_stress PoD / µM: 0.5175
--
Compound: CCCCOC(=O)c1ccc(O)cc1 [Butylparaben, Butyl 4-hydroxybenzoate]
pod_cell_stress PoD / µM: 4.378

###

A collection of compounds and their measured IPP screening %, Coactivator recruitment
Test system: Thyroid hormone receptor alpha, THRA (h)
Assay: IPP THRA coactivator recruitment (agonist)
Type: biochemical, human
Settings: 100 uM; agonist; T3; * denotes assay interference (2-Amino-6-chloro-4-nitrophenol, HC Red 3)
Value Kind: IPP screening %, Coactivator recruitment (%)

Compound: CN(C)C(=N)N=C(N)N [Metformin, N,N-Dimethyltriimidodicarbonic diamide]
Measured Number: 4.0

Compound: CC(C)(CO)C(O)C(=O)NCCCO (stereo not shown) [Panthenol]
Measured Number: 2.0

Compound: CCN(CC)C(=O)c1cccc(C)c1 [DEET, N,N-Diethyl-3-methylbenzamide]
Measured Number: 0.0

Compound: O=C(O)c1ccc2c(c1)C(=O)OC2=O [Trimellitic anhydride]
Measured Number: 1.0

###

System: Glutamate receptor ionotropic NMDA 1 non-selective, GRIN1 (r)
Settings: IPP screening at 100 uM; control CGS 19755
Value Kind: Specific binding (%)

Molecule: CC(=O)CC(c1ccccc1)c1c([O-])c2ccccc2oc1=O.[Na+] (stereo not drawn)
Experimental Target: Glutamate receptor ionotropic NMDA 1 non-selective, GRIN1 (r)
Value Kind: Specific binding
Measured Number: 7.9
//
Molecule: Nc1cc([N+](=O)[O-])cc(Cl)c1O
Experimental Target: Glutamate receptor ionotropic NMDA 1 non-selective, GRIN1 (r)
Value Kind: Specific binding
Measured Number: 21.2
//
Molecule: CCN(CC)C(=O)c1cccc(C)c1 [DEET, N,N-Diethyl-3-methylbenzamide]
Experimental Target: Glutamate receptor ionotropic NMDA 1 non-selective, GRIN1 (r)
Value Kind: Specific binding
Measured Number: 4.4
//
Molecule: CC(=O)Nc1ccc(O)cc1 [Paracetamol, N-(4-Hydroxyphenyl)acetamide]
Experimental Target: Glutamate receptor ionotropic NMDA 1 non-selective, GRIN1 (r)
Value Kind: Specific binding
Measured Number: -4.2
//
Molecule: CC(C)Cc1ccc(C(C)C(=O)O)cc1 (stereo not drawn)
Experimental Target: Glutamate receptor ionotropic NMDA 1 non-selective, GRIN1 (r)
Value Kind: Specific binding
Measured Number: 7.2
//
Molecule: CCOC(=O)c1ccc(N)cc1 [Benzocaine, Ethyl 4-aminobenzoate]
Experimental Target: Glutamate receptor ionotropic NMDA 1 non-selective, GRIN1 (r)
Value Kind: Specific binding
Measured Number: 11.5
//
Molecule: CCOc1cc(CCC(C)=O)ccc1O [Ethylzingerone, 4-(3-Ethoxy-4-hydroxyphenyl)butan-2-one]
Experimental Target: Glutamate receptor ionotropic NMDA 1 non-selective, GRIN1 (r)
Value Kind: Specific binding
Measured Number: -16.9
//
Molecule: CC(C)[C@H](N)C(=O)O
Experimental Target: Glutamate receptor ionotropic NMDA 1 non-selective, GRIN1 (r)
Value Kind: Specific binding
Measured Number: 0.4
//
Molecule: C[C@@H]1C[C@H]2[C@@H]3CCC4=CC(=O)C=C[C@]4(C)[C@@]3(F)[C@@H](O)C[C@]2(C)[C@@]1(O)C(=O)CO
Experimental Target: Glutamate receptor ionotropic NMDA 1 non-selective, GRIN1 (r)
Value Kind: Specific binding
Measured Number: 10.7
